tested on: PA-1; assay: Primary qHTS to identify gynecologic anti-cancer compounds using libraries of approved drugs and bioactive compounds (AID 1345084); conditions: Gynecologic cancer cell panel viability, ATPlite luminescence, 48 h; series mostly up to 57.5 µM; note: nearly all actives have a fitted effect of over 55% in size; note: potency is the fitted concentration of half-maximal effect
Inconclusive results are not listed. Calls of active or inactive are those of the source. Calls come from the whole dose curve; as a rule, active = well fitted cell-killing curve with a large enough effect; inconclusive = small, poorly fitted or top-dose-only effect, or effect the other way; inactive = flat fitted curve, though single readings scatter.
endpoint.name: Potency

Some compounds with recorded Potency:
Under PA-1: Potency value of `N#Cc1ccc(COC[C@H]2O[C@@H](n3c(NCc4ccc(Cl)c(Cl)c4)nc4c(N)ncnc43)[C@H](O)[C@@H]2O)cc1` ?
inactive

Under PA-1: Potency value of `Cc1cnc(-c2ccccc2C(C)C)nc1NCc1ccc(-n2ccnn2)cc1` ?
inactive

Under PA-1: Potency value of `N#Cc1ccc(-c2ccc(S(=O)(=O)Nc3cccc(N)n3)cc2)cc1` ?
inactive

Under PA-1: Potency value of `CCOc1ccc(S(=O)(=O)N2CCCCCC2)c2ccccc12` ?
inactive

Let's switch to this compound now.
Under PA-1: Potency value of `C=CC(=O)Nc1cccc(Nc2nc(Nc3ccc(OCCOC)cc3)ncc2F)c1` ?
10 µM (active)
